# experimental system: human orexin-2 receptor (Homo sapiens)
# Sequence (O43614 whole entry): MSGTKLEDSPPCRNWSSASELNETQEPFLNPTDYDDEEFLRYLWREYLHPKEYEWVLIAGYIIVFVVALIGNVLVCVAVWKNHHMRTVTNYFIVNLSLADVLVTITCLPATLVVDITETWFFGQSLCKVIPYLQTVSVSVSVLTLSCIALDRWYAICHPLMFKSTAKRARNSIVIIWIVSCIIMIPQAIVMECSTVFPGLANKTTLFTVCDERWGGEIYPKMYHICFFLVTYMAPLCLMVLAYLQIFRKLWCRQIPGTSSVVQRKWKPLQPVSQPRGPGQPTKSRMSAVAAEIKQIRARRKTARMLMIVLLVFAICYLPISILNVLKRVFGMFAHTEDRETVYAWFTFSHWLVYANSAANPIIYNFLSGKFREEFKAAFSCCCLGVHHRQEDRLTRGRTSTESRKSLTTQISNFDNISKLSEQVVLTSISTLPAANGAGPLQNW
# procedure text: OX2R FLIPR Ca flux assay (CHO cells)
# experimental setup: CHO cells expressing human orexin-2 receptor; agonist 70 pM Ala-6,12 orexin-A
pIC50 values by entry
In simple prose, pIC50 is minus the logarithm base ten of a concentration in moles per litre.

Consider the following illustrative entries.
[
  {
    "molecule": "CC(C)(O)c1csc(N2CCCN(C(=O)c3ccccc3OC(F)(F)F)CC2)n1 [Example 24]",
    "experimental system": "human orexin-2 receptor (Homo sapiens)",
    "val": 6.67
  },
  {
    "molecule": "Cc1oc(N2CCCN(C(=O)c3ccc(F)cc3-n3nccn3)CC2)nc1C(C)(C)O [Example 18]",
    "experimental system": "human orexin-2 receptor (Homo sapiens)",
    "val": 7.70
  },
  {
    "molecule": "Cc1oc(N2CCCN(C(=O)c3cccnc3OC(C)C)CC2)nc1C(C)(C)O [Example 14]",
    "experimental system": "human orexin-2 receptor (Homo sapiens)",
    "val": 7.39
  },
  {
    "molecule": "Cc1cc(C)nc(N2CCCN(C(=O)c3cccnc3-c3ccccc3)CC2)n1 [Example 11]",
    "experimental system": "human orexin-2 receptor (Homo sapiens)",
    "val": 6.78
  },
  {
    "molecule": "CCOc1ccccc1C(=O)N1CCCN(c2nc(C)cc(C)n2)CC1 [Example 7]",
    "experimental system": "human orexin-2 receptor (Homo sapiens)",
    "val": 7.19
  },
  {
    "molecule": "Cc1cc(C)nc(N2CCCN(C(=O)c3cccnc3OC(C)C)CC2)n1 [Example 4]",
    "experimental system": "human orexin-2 receptor (Homo sapiens)",
    "val": 6.97
  },
  {
    "molecule": "Cc1oc(N2CCCN(C(=O)c3cccnc3OCC(F)F)CC2)nc1C(C)(C)O [Example 16]",
    "experimental system": "human orexin-2 receptor (Homo sapiens)",
    "val": 7.59
  }
]

Attention now turns to another entry.
Given the molecule Cc1oc(N2CCCN(C(=O)c3ccccc3-n3nccn3)CC2)nc1C(C)(C)O [Example 13] , write its reported pIC50. 7.57
